Where these numbers come from: the METLIN SMRT retention time set (Domingo-Almenara et al. 2019)

- assay.method.text: gradient 5% acetonitrile 3 min, to 50% in 2 min, to 85% in 15 min, held 3 min, 100 µL/min
- run.parameters: column: Zorbax Extend-C18 2.1 x 50 mm; eluents: water / acetonitrile, 0.1% formic acid
quantity.kind: RP-LC retention time (s)
Provide only the numeric value, understood in s.

Example entries begin here.
compound | value.observed
Cn1cc(CN2CCCC(COc3ccccc3C(=O)N3CCCC3)C2)c2ccccc21 (stereo not drawn) | 695
Cc1ccc(-n2c(-c3ccc(Cl)cc3)cn3c4c(=O)n(C)c(=O)n(C)c4nc23)cc1C | 720

Lab note: next compound to report on.
Form: compound = CCCN1CCN(c2ccc(-c3nc(-c4ccccc4)no3)cn2)CC1 ; RP-LC retention time = 715

====

- assay.method.text: gradient 5% acetonitrile 3 min, to 50% in 2 min, to 85% in 15 min, held 3 min, 100 µL/min
- run.parameters: column: Zorbax Extend-C18 2.1 x 50 mm; eluents: water / acetonitrile, 0.1% formic acid
quantity.kind: RP-LC retention time

Example entries begin here.
compound | RP-LC retention time
Cc1cc2c(cc1S(=O)(=O)N1CCCC1C(=O)N1CCN(c3ccccc3)CC1)OC(C)C(=O)N2 (stereo not drawn) | 814 s
O=C(CC(c1ccccc1)c1ccccc1)NCC(O)c1cccs1 (stereo not drawn) | 809 s
Cc1ccc(CNC(=O)N2CC(n3cc(COc4ccc(F)cc4)nn3)C2)cc1 | 821 s
Cn1c(=O)c(N2CCC(NC(=O)NCc3cccc(F)c3)CC2)nc2ccccc21 | 816 s
CCCC(=O)OCCCNc1nc(-c2ccc(Cl)cc2)nc2ccccc12 | 813 s

Form: compound = Cc1cc(C(=O)OCC(=O)c2cccc([N+](=O)[O-])c2)c2ccccc2n1 ; RP-LC retention time = 804 s

Form: compound = Cc1cc(NC(=O)N2CCCC(Cn3cnc4cccnc43)C2)ccc1Br (stereo not drawn) ; RP-LC retention time = 784 s

Form: compound = Cc1ccc(C(=O)NCC(=O)Nc2cc(-c3nc(C)cs3)sc2C)cc1 ; RP-LC retention time = 814 s

====

- assay.method.text: gradient 5% acetonitrile 3 min, to 50% in 2 min, to 85% in 15 min, held 3 min, 100 µL/min
- run.parameters: column: Zorbax Extend-C18 2.1 x 50 mm; eluents: water / acetonitrile, 0.1% formic acid
Kindly return True if reported RP-LC retention time is no lower than 900 s; return False if it is lower.

Sample answers from the record:
compound | class.name
NCC(O)COCC1COc2ccccc2O1 (stereo unspecified) | False
CCC1Oc2ccc(S(=O)(=O)N3CCC(C(=O)Nc4ccc(C)c(Cl)c4)CC3)cc2NC1=O (stereo unspecified) | True
CCN(CC)Cc1cc2[nH]c3c4ccc(Cl)cc4ncc3c2cc1OC | False

We now examine a further compound.
// query Kindly determine if RP-LC retention time recorded for Cc1cc(C)cc(NC(=O)C2CCN(S(=O)(=O)c3cn(C)cn3)CC2)c1 is above or exactly 900 s.
// result False

====

- assay.method.text: gradient 5% acetonitrile 3 min, to 50% in 2 min, to 85% in 15 min, held 3 min, 100 µL/min
- run.parameters: column: Zorbax Extend-C18 2.1 x 50 mm; eluents: water / acetonitrile, 0.1% formic acid
// reported RP-LC retention time for each item listed
Dear colleague, please send the value followed by its unit.

Example entries begin here.
compound | RP-LC retention time
O=C(Cc1csc2nc(-c3cccc(Br)c3)cn12)NC1CCCC1 | 888 s
COc1ccc(C2CC(=O)N(c3ccc(C)c(C)c3)C(=O)C2)cc1OC | 893 s
O=C(NCC(F)(F)F)C1CCN(C(=O)Cc2ccc(Cl)cc2)CC1 | 707 s
CC(=O)N1CCc2cc(N3CC(C(=O)Nc4ccccc4OC(F)(F)F)CC3=O)ccc21 (stereo unspecified) | 766 s
CC(C)OCCCNC(=O)c1c2c(cn(-c3ccc(F)cc3)c1=O)C(=O)CC(C)(C)C2 | 885 s
O=C1NCCCn2cc(S(=O)(=O)Nc3ccc(F)cc3)cc21 | 639 s

Form: compound = COCc1noc(C2CCCCCN2C(=O)NC(C)C)n1 (stereo unspecified) ; RP-LC retention time = 730 s

Form: compound = CC(C)n1c(N2CCN(C(=O)c3cccs3)CC2)cc(=O)n(C(C)C)c1=O ; RP-LC retention time = 812 s

Form: compound = CCN1C(=O)c2cccnc2Sc2cc(NC(=O)Cc3ccccc3Cl)ccc21 ; RP-LC retention time = 856 s

Form: compound = CCOC(=O)C1CCC(CNC(=O)N2CCC(N3CCN(Cc4ccccc4)C(=O)C3=O)CC2)CC1 (stereo unspecified) ; RP-LC retention time = 734 s

Form: compound = O=C(NCCc1ccccc1)N1CCc2nc[nH]c2C1 ; RP-LC retention time = 575 s
